- target.entity: HLA-B*35:01
- measurement.description: IEDB peptide-MHC binding, purified MHC/competitive/radioactivity; filed as Kd, often an IC50 or EC50 that approximates it; bounds were set here for any values at or beyond the usual limits of such assays
- protocol.conditions: source organism: Dengue virus 3 Martinique/1243/1999
endpoint.label: pKd
In simple prose, pKd is minus the logarithm base ten of a concentration in moles per litre.

Note pKd for the sequence shown: `MPVTAASAAQ`
5.80

----------
- target.entity: HLA-B*07:02
- measurement.description: IEDB peptide-MHC binding, purified MHC/direct/fluorescence; filed as Kd, often an IC50 or EC50 that approximates it; bounds were set here for any values at or beyond the usual limits of such assays
- protocol.conditions: source organism: Campylobacter jejuni
endpoint.label: Kd

Tell me its Kd given `SFWFFHPPY` as the entry.
≥ 20 µM
